- System: 521955-158-R6-J3-PDC complex spheroid growth, % test/control
- assay.procedure: Anticancer human tumor 521955-158-R6-J3-PDC patient-derived pancreatic carcinoma cell line growth inhibition [Asc]
- conditions: second compound 0.3 µM; first compound 0.0316 µM; stronger effect = lower value
metric: viability, T/C (%)
Numeric only. Scale: %

Example entries begin here.
# compound, metric, output.unit, numeric.value
measured = [
    ("C=C(F)C(=O)N1CCN(c2nc(OCC3CCCN3C)nc3c2CCN(c2cccc4cccc(Cl)c24)C3)CC1CC#N (stereo not given) + CCN1C(C(=O)NC23CCC(C(=O)O)(CC2)CC3)C(c2cccc(Cl)c2F)C2(C(=O)Nc3cc(Cl)ccc32)C12CCCCC2", "viability, T/C", "%", 109),
    ("C#Cc1c(F)ccc2cc(O)cc(-c3ncc4c(N5CC6CCC(C5)N6)nc(OCC56CCCN5CC(F)C6)nc4c3F)c12 (stereo not given) + CCN1C(C(=O)NC23CCC(C(=O)O)(CC2)CC3)C(c2cccc(Cl)c2F)C2(C(=O)Nc3cc(Cl)ccc32)C12CCCCC2", "viability, T/C", "%", 72.1),
    ("O=C(c1cc(Cc2n[nH]c(=O)c3ccccc23)ccc1F)N1CCN(C(=O)C2CC2)CC1 + CCN1C(C(=O)NC23CCC(C(=O)O)(CC2)CC3)C(c2cccc(Cl)c2F)C2(C(=O)Nc3cc(Cl)ccc32)C12CCCCC2", "viability, T/C", "%", 113),
    ("Cn1ncnc1[C@H]1c2n[nH]c(=O)c3cc(F)cc(c23)N[C@@H]1c1ccc(F)cc1 + CCN1C(C(=O)NC23CCC(C(=O)O)(CC2)CC3)C(c2cccc(Cl)c2F)C2(C(=O)Nc3cc(Cl)ccc32)C12CCCCC2", "viability, T/C", "%", 98.3),
]

Query compound follows.
Given CNC(C)C(=O)NC1CN(S(=O)(=O)c2cccc(S(=O)(=O)N3CCC4CCC(C(=O)NC(c5ccccc5)c5ccccc5)N4C(=O)C(NC(=O)C(C)NC)C3)c2)CCC2CCC(C(=O)NC(c3ccccc3)c3ccccc3)N2C1=O (stereo not given) + CCN1C(C(=O)NC23CCC(C(=O)O)(CC2)CC3)C(c2cccc(Cl)c2F)C2(C(=O)Nc3cc(Cl)ccc32)C12CCCCC2 , respond with its viability, T/C.
100

###

- System: 521955-158-R6-J3-PDC complex spheroid growth, % test/control
- assay.procedure: Anticancer human tumor 521955-158-R6-J3-PDC cell line growth inhibition [Asc];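 note: spheroids exposed to compounds for 7 days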;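 for viability, T/C: 100% = DMSO vehicle control wells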
- conditions: second compound 0.0316 µM; first compound 0.316 µM; stronger effect = lower value
metric: viability, T/C (%)
Just the number in %, nothing appended.

# molecule, viability, T/C (%)
data = [
    ("C=CC(=O)N1CCN(c2nc(=O)n(-c3c(C)ccnc3C(C)C)c3nc(-c4c(O)cccc4F)c(F)cc23)C(C)C1 (stereo not drawn) + CNC(C)C(=O)NC1CN(S(=O)(=O)c2cccc(S(=O)(=O)N3CCC4CCC(C(=O)NC(c5ccccc5)c5ccccc5)N4C(=O)C(NC(=O)C(C)NC)C3)c2)CCC2CCC(C(=O)NC(c3ccccc3)c3ccccc3)N2C1=O", 108),
    ("C=CC(=O)N1CCN(c2nc(=O)n(-c3c(C)ccnc3C(C)C)c3nc(-c4c(O)cccc4F)c(F)cc23)C(C)C1 (stereo not drawn) + Cc1c(S(C)(=O)=O)c(-c2cc(F)cc(N3CCN(c4ccc(NS(=O)(=O)c5ccc(NC(CCN6CCC(C(=O)OCCCP(=O)(O)O)CC6)CSc6ccccc6)c(S(=O)(=O)C(F)(F)F)c5)cc4)CC3)c2)c(-c2ccc(Cl)cc2)n1C(C)C", 84.6),
]

Identify measured viability, T/C associated with CCN1CCN(Cc2ccc(Nc3ncc(F)c(-c4cc(F)c5nc(C)n(C(C)C)c5c4)n3)nc2)CC1 + CNC(C)C(=O)NC1CN(S(=O)(=O)c2cccc(S(=O)(=O)N3CCC4CCC(C(=O)NC(c5ccccc5)c5ccccc5)N4C(=O)C(NC(=O)C(C)NC)C3)c2)CCC2CCC(C(=O)NC(c3ccccc3)c3ccccc3)N2C1=O
83.6

###

- Test system: 521955-158-R6-J3-PDC complex spheroid growth, % test/control
- assay.procedure: Anticancer human tumor 521955-158-R6-J3-PDC cell line growth inhibition [Asc]; active = viability on the fitted dose curve at most 10% of control; inactive = the rest;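 note: spheroids exposed to compounds for 7 days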
- conditions: second compound 3.16 µM; first compound 10 µM
// allowed return values: active, inactive

# compound, class.name
records = [
    ("O=C(c1cc(Cc2n[nH]c(=O)c3ccccc23)ccc1F)N1CCN(C(=O)C2CC2)CC1 + Cc1c(S(C)(=O)=O)c(-c2cc(F)cc(N3CCN(c4ccc(NS(=O)(=O)c5ccc(NC(CCN6CCC(C(=O)OCCCP(=O)(O)O)CC6)CSc6ccccc6)c(S(=O)(=O)C(F)(F)F)c5)cc4)CC3)c2)c(-c2ccc(Cl)cc2)n1C(C)C", "inactive"),
]

What was the test verdict on C=C(F)C(=O)N1CCN(c2nc(OCC3CCCN3C)nc3c2CCN(c2cccc4cccc(Cl)c24)C3)CC1CC#N (centres undefined) + Cc1c(S(C)(=O)=O)c(-c2cc(F)cc(N3CCN(c4ccc(NS(=O)(=O)c5ccc(NC(CCN6CCC(C(=O)OCCCP(=O)(O)O)CC6)CSc6ccccc6)c(S(=O)(=O)C(F)(F)F)c5)cc4)CC3)c2)c(-c2ccc(Cl)cc2)n1C(C)C ?
active

What did the test return for C=CC(=O)N1CCN(c2nc(=O)n(-c3c(C)ccnc3C(C)C)c3nc(-c4c(O)cccc4F)c(F)cc23)C(C)C1 (centres undefined) + Cc1c(S(C)(=O)=O)c(-c2cc(F)cc(N3CCN(c4ccc(NS(=O)(=O)c5ccc(NC(CCN6CCC(C(=O)OCCCP(=O)(O)O)CC6)CSc6ccccc6)c(S(=O)(=O)C(F)(F)F)c5)cc4)CC3)c2)c(-c2ccc(Cl)cc2)n1C(C)C ?
active

What outcome does the record of this test show for C#Cc1c(F)ccc2cc(O)cc(-c3ncc4c(N5CC6CCC(C5)N6)nc(OCC56CCCN5CC(F)C6)nc4c3F)c12 (centres undefined) + Cc1c(S(C)(=O)=O)c(-c2cc(F)cc(N3CCN(c4ccc(NS(=O)(=O)c5ccc(NC(CCN6CCC(C(=O)OCCCP(=O)(O)O)CC6)CSc6ccccc6)c(S(=O)(=O)C(F)(F)F)c5)cc4)CC3)c2)c(-c2ccc(Cl)cc2)n1C(C)C ?
active

###

As shown below, each of these molecules has a reported pIC50 value.
- Test system: 521955-158-R6-J3-PDC complex spheroid growth, % test/control
- assay.procedure: Anticancer human tumor 521955-158-R6-J3-PDC cell line growth inhibition [Asc];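 note: spheroids exposed to compounds for 7 days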
- conditions: curve of first compound; second compound 0.03 µM
pIC50: −log10 of the molar value.

# molecule, pIC50
rows = [
    ("CNC(C)C(=O)NC1CN(S(=O)(=O)c2cccc(S(=O)(=O)N3CCC4CCC(C(=O)NC(c5ccccc5)c5ccccc5)N4C(=O)C(NC(=O)C(C)NC)C3)c2)CCC2CCC(C(=O)NC(c3ccccc3)c3ccccc3)N2C1=O (configuration not stated) + CCN1C(C(=O)NC23CCC(C(=O)O)(CC2)CC3)C(c2cccc(Cl)c2F)C2(C(=O)Nc3cc(Cl)ccc32)C12CCCCC2", "< 6.00"),
]

# ---- query molecule ----
Name the recorded pIC50 of the item Cn1ncnc1[C@H]1c2n[nH]c(=O)c3cc(F)cc(c23)N[C@@H]1c1ccc(F)cc1 + CCN1C(C(=O)NC23CCC(C(=O)O)(CC2)CC3)C(c2cccc(Cl)c2F)C2(C(=O)Nc3cc(Cl)ccc32)C12CCCCC2 in your answer.
< 7.00

###

- Tested on: 521955-158-R6-J3-PDC complex spheroid growth, % test/control
- assay.procedure: Anticancer human tumor 521955-158-R6-J3-PDC cell line growth inhibition [Asc];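 note: spheroids exposed to compounds for 7 days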;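 for viability, T/C: 100% = DMSO vehicle control wells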
- conditions: second compound 0.1 µM; first compound 0.00949 µM; stronger effect = lower value
- Description: Multicellular complex tumor spheroid response to apoptosis pathway targeting inhibitors Alrizomadlin, Pelcitoclax, and Dasminapant in combination with a variety of drugs and investigational agents in selected tumor cell lines […] Compounds. […] If the clinical Cmax for an agent had not been determined, the highest concentration tested was 10 microM. […]
Measured viability, T/C values are reported for all entries that follow.

As a guide, the following entries are already answered.
# compound, viability, T/C
records = [
    ("CCN1C(C(=O)NC23CCC(C(=O)O)(CC2)CC3)C(c2cccc(Cl)c2F)C2(C(=O)Nc3cc(Cl)ccc32)C12CCCCC2 (stereo not drawn) + CNC(C)C(=O)NC1CN(S(=O)(=O)c2cccc(S(=O)(=O)N3CCC4CCC(C(=O)NC(c5ccccc5)c5ccccc5)N4C(=O)C(NC(=O)C(C)NC)C3)c2)CCC2CCC(C(=O)NC(c3ccccc3)c3ccccc3)N2C1=O", "86.8%"),
    ("NC(=O)C(=Cn1cnc(-c2cc(C(F)(F)F)cc(C(F)(F)F)c2)n1)c1cncnc1 + CNC(C)C(=O)NC1CN(S(=O)(=O)c2cccc(S(=O)(=O)N3CCC4CCC(C(=O)NC(c5ccccc5)c5ccccc5)N4C(=O)C(NC(=O)C(C)NC)C3)c2)CCC2CCC(C(=O)NC(c3ccccc3)c3ccccc3)N2C1=O", "65.2%"),
]

// below: viability, T/C requested for another compound
Give viability, T/C; test system 521955-158-R6-J3-PDC complex spheroid growth, % test/control; compound CCN1C(C(=O)NC23CCC(C(=O)O)(CC2)CC3)C(c2cccc(Cl)c2F)C2(C(=O)Nc3cc(Cl)ccc32)C12CCCCC2 (stereo not drawn) + Cc1c(S(C)(=O)=O)c(-c2cc(F)cc(N3CCN(c4ccc(NS(=O)(=O)c5ccc(NC(CCN6CCC(C(=O)OCCCP(=O)(O)O)CC6)CSc6ccccc6)c(S(=O)(=O)C(F)(F)F)c5)cc4)CC3)c2)c(-c2ccc(Cl)cc2)n1C(C)C
77.7%
